Target: T1, human MSR1 extracellular domain expressed with a N-terminal nonahistidine tag (His9-hMSR1); R&D Systems, Cat … (human, UniProt P21757 77-451)
T1 construct: extracellular domain; Bought reagent; also called His-hMSR1; 9xHis-hMSR1
T1 sequence: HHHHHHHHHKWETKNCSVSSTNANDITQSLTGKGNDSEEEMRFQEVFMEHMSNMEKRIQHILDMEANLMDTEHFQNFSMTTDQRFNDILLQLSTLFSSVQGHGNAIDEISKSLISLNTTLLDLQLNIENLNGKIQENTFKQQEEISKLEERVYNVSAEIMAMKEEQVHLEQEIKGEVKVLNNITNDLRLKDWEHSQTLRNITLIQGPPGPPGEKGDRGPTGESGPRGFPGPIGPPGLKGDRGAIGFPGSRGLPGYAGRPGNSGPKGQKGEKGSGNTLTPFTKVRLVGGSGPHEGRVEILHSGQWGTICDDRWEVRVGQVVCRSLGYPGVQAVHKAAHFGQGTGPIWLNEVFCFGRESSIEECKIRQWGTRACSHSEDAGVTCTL
Assay: SPR Biacore T200, 25 C, antibody captured by anti-human Fc, His9-hMSR1 injected;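 further: running buffer HBS-ET pH 7.4, rates from sensorgrams fitted to a 1:1 model including mass transport limitation, KD and half-life derived from the kinetic constants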
// reported kon for each item listed
The response must be a number in M⁻¹ s⁻¹ with no trailing unit.

binder	result
H1H21234N-N297Q-LP1 (antibody, human IgG1, V domains shown, LXR agonist linker-payload LP1 clicked to azido-PEG3-amine on Q295 and Q297 (EU) of the heavy chain constant region, antibody-drug conjugate; human IgG1 Fc with N297Q (EU); also called H1H21234N-LP1) VH: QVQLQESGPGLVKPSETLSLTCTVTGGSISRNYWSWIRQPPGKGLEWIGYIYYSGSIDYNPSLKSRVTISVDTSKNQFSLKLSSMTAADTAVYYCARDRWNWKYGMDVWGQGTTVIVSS VL: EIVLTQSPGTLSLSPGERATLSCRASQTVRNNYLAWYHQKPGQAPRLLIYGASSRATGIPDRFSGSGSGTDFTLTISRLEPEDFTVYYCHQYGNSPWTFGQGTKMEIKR	490000
H1H27731P-N297Q (antibody, V domains shown, human IgG1 Fc with N297Q (EU)) VH: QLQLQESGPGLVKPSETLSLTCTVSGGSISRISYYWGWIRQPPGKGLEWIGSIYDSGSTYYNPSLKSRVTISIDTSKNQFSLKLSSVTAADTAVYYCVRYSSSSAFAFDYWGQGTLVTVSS VL: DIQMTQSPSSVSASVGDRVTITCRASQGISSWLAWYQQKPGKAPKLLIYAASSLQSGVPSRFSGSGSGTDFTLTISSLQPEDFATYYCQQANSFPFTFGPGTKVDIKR	117000
H1H21234N-N297Q (antibody, human IgG1, V domains shown, human IgG1 Fc with N297Q (EU); also called H1H21234-N297Q) VH: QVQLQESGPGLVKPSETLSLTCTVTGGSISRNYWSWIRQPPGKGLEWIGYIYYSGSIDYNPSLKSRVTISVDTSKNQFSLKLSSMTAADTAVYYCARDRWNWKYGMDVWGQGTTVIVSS VL: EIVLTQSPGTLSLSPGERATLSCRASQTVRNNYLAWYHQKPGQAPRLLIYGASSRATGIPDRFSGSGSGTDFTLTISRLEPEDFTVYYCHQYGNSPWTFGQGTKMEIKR	220000
H1H27734P-N297Q (antibody, human IgG1, V domains shown, human IgG1 Fc with N297Q (EU)) VH: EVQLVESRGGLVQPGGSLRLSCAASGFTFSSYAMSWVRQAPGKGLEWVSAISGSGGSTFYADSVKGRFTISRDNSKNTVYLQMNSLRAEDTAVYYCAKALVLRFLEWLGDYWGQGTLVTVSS VL: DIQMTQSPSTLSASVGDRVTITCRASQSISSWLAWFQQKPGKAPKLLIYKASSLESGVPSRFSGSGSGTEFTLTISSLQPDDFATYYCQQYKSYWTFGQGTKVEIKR	77200

Shifting focus to the binder that follows.
Look at this binder and give its reported kon. H1H27754P-N297Q-LP1 (antibody, human IgG1, V domains shown, LXR agonist linker-payload LP1 clicked to azido-PEG3-amine on Q295 and Q297 (EU) of the heavy chain constant region, antibody-drug conjugate; human IgG1 Fc with N297Q (EU); also called H1H27754P-LP1) VH: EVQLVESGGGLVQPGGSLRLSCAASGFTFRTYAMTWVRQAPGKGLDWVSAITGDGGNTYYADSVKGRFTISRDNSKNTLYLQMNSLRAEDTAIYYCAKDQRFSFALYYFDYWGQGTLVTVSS VL: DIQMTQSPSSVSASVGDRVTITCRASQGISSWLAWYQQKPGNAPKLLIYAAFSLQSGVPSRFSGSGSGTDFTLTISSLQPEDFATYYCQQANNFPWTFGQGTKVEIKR
177000
